target: Tyrosine-protein kinase Lyn (Homo sapiens); experiment: Inhibition of human LYN using poly [Glu:Tyr] as substrate incubated for 30 mins followed by 33P-ATP addition and measured after 2 hrs by liquid scintillation counter method
Sequence (P07948 whole entry): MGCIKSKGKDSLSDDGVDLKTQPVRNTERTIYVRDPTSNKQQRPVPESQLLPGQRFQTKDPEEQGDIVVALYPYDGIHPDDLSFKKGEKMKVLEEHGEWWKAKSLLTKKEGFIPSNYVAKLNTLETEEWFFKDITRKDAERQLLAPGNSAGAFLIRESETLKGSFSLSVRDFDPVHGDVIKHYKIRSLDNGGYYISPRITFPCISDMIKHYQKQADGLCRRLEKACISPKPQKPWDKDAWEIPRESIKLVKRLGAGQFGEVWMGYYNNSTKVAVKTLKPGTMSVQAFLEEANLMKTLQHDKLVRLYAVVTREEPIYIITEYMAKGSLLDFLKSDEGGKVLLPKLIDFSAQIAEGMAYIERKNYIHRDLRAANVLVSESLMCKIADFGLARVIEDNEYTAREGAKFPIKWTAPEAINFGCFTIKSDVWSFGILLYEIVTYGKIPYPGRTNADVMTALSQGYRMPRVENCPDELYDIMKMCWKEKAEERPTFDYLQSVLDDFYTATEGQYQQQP

Chemical string | IC50
Cc1ccc(C(=O)Nc2ccc3c(c2)C(F)(F)C[C@@H]3N2CCN(C)CC2)cc1C#Cc1cnc2cccnn12 | < 10 nM

----------
assay: Clearance in ICR mouse at 5 mg/kg, iv measured upto 24 hrs by LC/MS/MS analysis; format: ADME, organism-based; conditions: in vivo
# clearance values compiled below

Chemical string | clearance (L/h/kg)
Cc1ccc(C(=O)Nc2ccc3c(c2)C(F)(F)C[C@@H]3N2CCN(C)CC2)cc1C#Cc1cnc2cccnn12 | 3.72
Cc1ccc(C(=O)Nc2ccc(CN3CCN(C)CC3)c(C(F)(F)F)c2)cc1C#Cc1cnc2cccnn12 | 9.68
